Target: α1β2γ2L GABAARs (Mus musculus, UniProt P62812+P63137)
Construct: expressed in transfected cells; host or cells: HEK293
Sequence (P62812 28-455): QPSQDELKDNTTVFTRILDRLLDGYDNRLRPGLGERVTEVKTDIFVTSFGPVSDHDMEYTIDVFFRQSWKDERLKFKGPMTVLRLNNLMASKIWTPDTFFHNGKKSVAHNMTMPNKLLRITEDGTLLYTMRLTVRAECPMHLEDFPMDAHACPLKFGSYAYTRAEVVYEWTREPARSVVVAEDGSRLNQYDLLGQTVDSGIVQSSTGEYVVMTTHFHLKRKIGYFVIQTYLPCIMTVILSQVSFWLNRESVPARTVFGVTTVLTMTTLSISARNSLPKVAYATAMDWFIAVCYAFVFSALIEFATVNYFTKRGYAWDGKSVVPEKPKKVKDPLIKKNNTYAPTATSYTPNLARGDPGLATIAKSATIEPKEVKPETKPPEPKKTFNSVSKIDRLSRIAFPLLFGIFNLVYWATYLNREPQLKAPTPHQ
Sequence (P63137 25-512 limits assumed): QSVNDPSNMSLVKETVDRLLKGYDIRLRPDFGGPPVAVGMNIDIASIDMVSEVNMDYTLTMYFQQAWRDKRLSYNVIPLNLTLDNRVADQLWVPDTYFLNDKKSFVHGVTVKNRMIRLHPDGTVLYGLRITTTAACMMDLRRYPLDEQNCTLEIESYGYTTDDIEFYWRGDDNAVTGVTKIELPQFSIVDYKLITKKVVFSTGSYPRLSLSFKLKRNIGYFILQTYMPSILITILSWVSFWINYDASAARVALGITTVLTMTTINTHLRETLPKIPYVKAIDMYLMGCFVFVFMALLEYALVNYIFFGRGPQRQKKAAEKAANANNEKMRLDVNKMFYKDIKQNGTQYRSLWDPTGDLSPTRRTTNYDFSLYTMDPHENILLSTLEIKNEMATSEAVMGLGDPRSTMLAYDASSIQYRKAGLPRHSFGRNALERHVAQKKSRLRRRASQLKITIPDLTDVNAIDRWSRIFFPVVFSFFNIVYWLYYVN
Sequence (P22723 39-474 partner): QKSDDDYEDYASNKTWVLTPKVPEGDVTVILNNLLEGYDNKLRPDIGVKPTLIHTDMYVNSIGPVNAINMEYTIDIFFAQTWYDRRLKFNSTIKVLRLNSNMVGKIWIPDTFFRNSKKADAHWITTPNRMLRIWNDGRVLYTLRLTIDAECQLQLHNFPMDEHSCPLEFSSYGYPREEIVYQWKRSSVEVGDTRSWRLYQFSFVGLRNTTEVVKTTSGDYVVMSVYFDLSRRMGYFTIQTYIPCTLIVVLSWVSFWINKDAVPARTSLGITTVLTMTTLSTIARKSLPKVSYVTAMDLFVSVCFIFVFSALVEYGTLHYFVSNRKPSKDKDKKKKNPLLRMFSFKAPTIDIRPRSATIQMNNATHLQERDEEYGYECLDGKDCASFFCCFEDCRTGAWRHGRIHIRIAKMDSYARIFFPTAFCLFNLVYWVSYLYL
Assay: Whole-cell patch clamp of GABA currents, recombinant α1β2γ2L GABAARs in HEK293 cells
Format: cell-based, murine
Conditions: dark-adapted azogabazine (~100% trans), 10 μM GABA, wild-type
result type: IC50 (nM)
All answers are understood in nM, so give the number only.

Q. Which IC50 is reported with α1β2γ2L GABAARs (Mus musculus, UniProt P62812+P63137) for this entry: N=c1ccc(-c2ccc(N=Nc3ccccc3)cc2)nn1CCCC(=O)O ?
A. 21.1
